Experiment: Pharmacokinetic Assay, single oral dose 100 mg/kg (Table 11)
Type: in vivo
Details: mouse, C57 female mice, oral (intragastric), plasma
REPORTED PROPERTY: Tmax

Some solved cases for reference:
MOLECULE	Tmax
Cc1c(-c2nc3cc(CN4CCC(C)C4)c(OC(F)F)cc3o2)cccc1-c1cccc(-c2nc3cc(CN4CCC[C@H]4C(=O)O)c(OC(F)F)cc3o2)c1C (some centres unmarked) [Example 61]	4 h
Cc1c(-c2nc3cc(CN4CC(N(C)C)C4)c(OC(F)F)cc3o2)cccc1-c1cccc(-c2nc3cc(CN4CCC[C@H]4C(=O)O)c(OC(F)F)cc3o2)c1C [Example 33]	4 h
Cc1c(-c2nc3cc(CNC4COC4)c(OC(F)F)cc3o2)cccc1-c1cccc(-c2nc3cc(CN4CCC[C@H]4C(=O)O)c(OC(F)F)cc3o2)c1C [Example 28]	1 h
Cc1c(-c2nc3cc(CN4CCC[C@H]4C(=O)O)c(OC(F)F)cc3o2)cccc1-c1cccc(-c2nc3cc(CN4CCCC4)cc(F)c3o2)c1C [Example 95]	4 h
Cc1c(-c2nc3cc(CNC[C@@H]4CCCO4)c(OC(F)F)cc3o2)cccc1-c1cccc(-c2nc3cc(CN4CCC[C@H]4C(=O)O)c(OC(F)F)cc3o2)c1C [Example 64]	7 h

QUERY: # input molecule: Cc1c(-c2nc3cc(CN4CC[C@H]4CO)c(OC(F)F)cc3o2)cccc1-c1cccc(-c2nc3cc(CN4CCC[C@H]4C(=O)O)c(OC(F)F)cc3o2)c1C [Example 31] ; wanted: its Tmax
RESULT: 1 h

QUERY: GET /values?readout=Tmax&item= Cc1c(-c2nc3c(o2)CCNC3)cccc1-c1cccc(-c2nc3cc(CN4CCC[C@H]4C(=O)O)c(OC(F)F)cc3o2)c1C [Example 190]
RESULT: 1 h

QUERY: Data request, read-out Tmax, for Cc1c(Nc2nccc3cc(CN4CCC[C@@]4(C)C(=O)O)cnc23)cccc1-c1cccc(-c2nc3cc(CN4CCC[C@H]4C(=O)O)c(OC(F)F)cc3o2)c1C [Example 171]
RESULT: 1 h

QUERY: Please look up its Tmax: Cc1c(-c2nc3cc(CN4CCC[C@H]4C(=O)O)c(OC(F)F)cc3o2)cccc1-c1cccc(-c2nc3cc(CN4CCC(C)C4)cc(C(F)(F)F)c3o2)c1C (some centres unmarked) [Example 88]
RESULT: 24 h

QUERY: Entry Cc1c(-c2nc3cc(CN4CCC[C@H]4C(=O)O)c(OC(F)F)cc3o2)cccc1-c1cccc(-c2nc3cc(CN4CCC[C@H]4C(=O)O)c(OC(F)F)cc3o2)c1C [Example 2] : reported Tmax = ?
RESULT: 0.5 h

QUERY: Field request: Tmax | item: Cc1c(-c2nc3cc(CN4CC5(CC5)C4)c(OC(F)F)cc3o2)cccc1-c1cccc(-c2nc3cc(CN4CCC[C@H]4C(=O)O)c(OC(F)F)cc3o2)c1C [Example 74]
RESULT: 4 h

QUERY: I would be grateful if you could share the reported Tmax for CNCc1cc2nc(-c3cccc(-c4cccc(-c5nc6cc(CN7CCC[C@H]7C(=O)O)c(OC(F)F)cc6o5)c4C)c3C)oc2cc1OC(F)F [Example 15] .
RESULT: 1 h

QUERY: I have this molecule here, Cc1c(-c2nc3cc(CN4CCC4)c(OC(F)F)cc3o2)cccc1-c1cccc(-c2nc3cc(CN4CCC[C@H]4C(=O)O)c(OC(F)F)cc3o2)c1C [Example 8] , and I need its recorded Tmax.
RESULT: 4 h

QUERY: Name the recorded Tmax for Cc1c(-c2ccc(CN3CCCC3)c(OC(F)F)c2)cccc1-c1cccc(-c2nc3cc(CN4CCC[C@H]4C(=O)O)c(OC(F)F)cc3o2)c1C [Example 244] .
RESULT: 2 h

QUERY: // query Tmax value for entry Cc1c(-c2nc3cc(CN4CCC[C@H]4C(=O)O)c(OC(F)F)cc3o2)cccc1-c1cccc(-c2nc3cc(CN4CCCC4)c(OC(F)F)cc3o2)c1C#N [Example 65]
RESULT: 4 h

###

Biological target: PD-1/PD-L1 (Homo sapiens (Human), UniProt Q9NZQ7)
Sequence (Q9NZQ7 19-238): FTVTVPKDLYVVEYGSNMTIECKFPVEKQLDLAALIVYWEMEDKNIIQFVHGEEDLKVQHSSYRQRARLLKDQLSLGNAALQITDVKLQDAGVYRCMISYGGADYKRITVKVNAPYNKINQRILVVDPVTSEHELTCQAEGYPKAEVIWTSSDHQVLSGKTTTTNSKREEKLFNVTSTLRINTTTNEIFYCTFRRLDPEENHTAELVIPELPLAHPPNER
Experiment: PD-1/PD-L1 Binding Assay (Alphascreen)
Settings: numeric values
Where a name gives a salt, the structure may show the parent alone.
REPORTED PROPERTY: IC50 (nM)
Lab book: enter the figure in nM, no units written.

Past entries and their recorded results:
MOLECULE	UNITS TEXT	READOUT NUMBER
Cc1c(-c2nc3cc(CN4CCCC4)c(OC(F)F)cc3o2)cccc1-c1cccc(-c2nc3cc(CN4CCC[C@@H]4C(=O)O)c(OC(F)F)cc3o2)c1C [Example 66]	nM	1.8
Cc1c(-c2nc3cc(CN[C@@H]4CCC[C@@H]4O)c(OC(F)F)cc3o2)cccc1-c1cccc(-c2nc3cc(CN4CCC[C@H]4C(=O)O)c(OC(F)F)cc3o2)c1C [Example 25]	nM	0.3
Cc1c(Nc2nccc3cc(CN4CCC4)cnc23)cccc1-c1cccc(-c2nc3cc(CN4CCC[C@H]4C(=O)O)c(OC(F)F)cc3o2)c1C [Example 177]	nM	0.94
Cc1c(-c2nc3cc(CN4CCC[C@H]4C(=O)O)c(OC(F)F)cc3o2)cccc1-c1cccc(-c2ccc(CN3CCCC3)cc2F)c1C [Example 253]	nM	4.7
Cc1c(-c2nc3cc(CN4CC[C@@H]4CO)c(OC(F)F)cc3o2)cccc1-c1cccc(-c2nc3cc(CN4CCC[C@H]4C(=O)O)c(OC(F)F)cc3o2)c1C [Example 35]	nM	0.91
COc1cc(-c2cccc(-c3cccc(-c4nc5cc(CN6CCC[C@H]6C(=O)O)c(OC(F)F)cc5o4)c3C)c2C)cc(OC)c1CN1CCCC1 [Example 254, hydrochloride]	nM	16

QUERY: What IC50 appears in the records for this molecule with PD-1/PD-L1 (Homo sapiens (Human), UniProt Q9NZQ7)? Cc1c(-c2nc3cc(CN4CC(F)C4)c(OC(F)F)cc3o2)cccc1-c1cccc(-c2nc3cc(CN4CCC[C@H]4C(=O)O)c(OC(F)F)cc3o2)c1C [Example 9]
RESULT: 18

QUERY: Query IC50 on PD-1/PD-L1 (Homo sapiens (Human), UniProt Q9NZQ7) for CCN(CC)C1CN(Cc2cc3nc(-c4cccc(-c5cccc(-c6nc7cc(CN8CCC[C@H]8C(=O)O)c(OC(F)F)cc7o6)c5C)c4C)oc3cc2OC(F)F)C1 [Example 68]
RESULT: 2.4

QUERY: Which measured IC50 belongs to Cc1c(-c2nc3cc(CN4CCC[C@H]4C(=O)O)c(OC(F)F)cc3o2)cccc1-c1cccc(-c2nc3cc(CN4CCCC4)c(C(F)(F)F)cc3o2)c1C [Example 101] , tested on PD-1/PD-L1 (Homo sapiens (Human), UniProt Q9NZQ7)?
RESULT: 2.2

QUERY: IC50 of Cc1c(-c2nc3cc(CNC4COC4)c(OC(F)F)cc3o2)cccc1-c1cccc(-c2nc3cc(CN4CCC[C@H]4C(=O)O)c(OC(F)F)cc3o2)c1C [Example 28] on PD-1/PD-L1 (Homo sapiens (Human), UniProt Q9NZQ7)?
RESULT: 3.2

###

Target: PD-1/PD-L1 (Homo sapiens (Human))
Experiment: PD-1/PD-L1 Binding Assay (Alphascreen)
Conditions: numeric values
Labelling field: enter criterion met if recorded IC50 is less than 2 nM. Enter criterion not met if it equals or exceeds that cut-off.

Recorded results for 5 compounds are shown here.
COMPOUND	QUALITATIVE LABEL
Cc1c(-c2nc3cc(CN4CC(C)(O)C4)c(OC(F)F)cc3o2)cccc1-c1cccc(-c2nc3cc(CN4CCC[C@H]4C(=O)O)c(OC(F)F)cc3o2)c1C [Example 44]	criterion met
Cc1c(-c2ccc3[nH]c(N)nc3c2)cccc1-c1cccc(-c2nc3cc(CN4CCC[C@H]4C(=O)O)c(OC(F)F)cc3o2)c1C [Example 293]	criterion not met
Cc1c(-c2nc3cc(CN4CCC[C@H]4C(=O)O)c(OC(F)F)cc3o2)cccc1-c1cccc(-c2nc3cc(CN4CCC45COC5)c(OC(F)F)cc3o2)c1C [Example 39]	criterion not met
COc1nc(-c2cccc(-c3cccc(-c4nc5cc(CN6CCC[C@H]6C(=O)O)c(OC(F)F)cc5o4)c3C)c2C)ccc1CN1CC[C@@H](C)C1 [Example 272]	criterion met
Cc1c(-c2nc3cc(CN4CCC[C@H]4CO)c(OC(F)F)cc3o2)cccc1-c1cccc(-c2nc3cc(CN4CCC[C@H]4C(=O)O)c(OC(F)F)cc3o2)c1C [Example 12]	criterion met

QUERY: State whether 2 nM exceeds IC50 recorded for Cc1c(Nc2nccc3cc(CN4CCCC[C@H]4C(=O)O)cnc23)cccc1-c1cccc(-c2nc3cc(CN4CCC[C@H]4C(=O)O)c(OC(F)F)cc3o2)c1C [Example 173] .
RESULT: criterion met

QUERY: is_below(IC50, 2 nM) for Cc1c(-c2nc3cc(CN4CC(N(C)C)C4)c(OC(F)F)cc3o2)cccc1-c1cccc(-c2nc3cc(CN4CCC[C@H]4C(=O)O)c(OC(F)F)cc3o2)c1C [Example 33] ?
RESULT: criterion met

QUERY: In plain terms, does Cc1c(-c2nc3c(o2)CCNC3)cccc1-c1cccc(-c2nc3cc(CN4CCC[C@H]4C(=O)O)c(OC(F)F)cc3o2)c1C [Example 190] come in under 2 nM for IC50?
RESULT: criterion met

QUERY: Determine whether this compound shows IC50 lower than 2 nM (ties excluded): Cc1c(-c2nc3cc(CN[C@@H]4CCC[C@@H]4O)ccc3o2)cccc1-c1cccc(-c2nc3cc(CN4CCC[C@H]4C(=O)O)c(OC(F)F)cc3o2)c1C [Example 99]
RESULT: criterion met

QUERY: Quick check: IC50 of Cc1c(-c2nc3c(o2)CCOC3)cccc1-c1cccc(-c2nc3cc(CN4CCC[C@H]4C(=O)O)c(OC(F)F)cc3o2)c1C [Example 203] under 2 nM?
RESULT: criterion not met

QUERY: Strictly below 2 nM in IC50? Cc1c(-c2nc3cc(CN4CCC[C@H]4C(=O)O)c(OC(F)F)cc3o2)cccc1-c1cccc(-c2nc3cc(CN4CC[C@@H](C)C4)cnc3o2)c1C [Example 114]
RESULT: criterion met

QUERY: Decide: IC50 of COc1nc(OCc2cccc(-c3cccc(-c4nc5cc(CN6CCC[C@H]6C(=O)O)c(OC(F)F)cc5o4)c3C)c2C)nc(OC)c1CN1CCCC1 [Example 212] strictly below 2 nM?
RESULT: criterion not met

Origin of measurements: patent US12187713B2
